assay: Body and organ weights of cynomolgus monkeys (Example 46); format: in vivo; details: day 15
Strand notation (5' to 3'): a small letter for the sugar, then the base; units joined by * are phosphorothioate-linked, units joined directly phosphodiester-linked; [ ] holds rarer units or linkages, { } end groups; capitals alone tell only the bases. e = 2'-O-(2-methoxyethyl) (MOE); [5mC] = 5-methylcytosine; d = 2'-deoxy (DNA)
measurement_name: body weight (g)

ISIS 449707: 3-8-3, 4-8-4, 2-10-2, 3-10-3 or 4-10-4 MOE microwalk gapmer (Table 46) (antisense e[5mC]*eA*e[5mC]*eA*dG*dT*dT*dT*d[5mC]*dT*dG*dG*e[5mC]*eA*eG*eG) :: 2120
ISIS 445531: 5-8-5 or 6-8-6 MOE microwalk gapmer (Table 44) (antisense eG*eG*e[5mC]*eA*eT*dT*dG*dG*dT*dG*d[5mC]*dA*d[5mC]*eA*eG*eT*eT*eT) :: 2109
ISIS 416858: MOE gapmer, nucleobases 1275 to 1318 of SEQ ID NO: 1 (Table 8) (antisense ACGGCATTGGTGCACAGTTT; MOE gapmer, wing and gap sizes not given here) :: 2162
ISIS 445522: 5-8-5 or 6-8-6 MOE microwalk gapmer (Table 44) (antisense eG*e[5mC]*eA*e[5mC]*eA*dG*dT*dT*dT*d[5mC]*dT*dG*dG*e[5mC]*eA*eG*eG*e[5mC]) :: 2092
ISIS 449708: 3-8-3, 4-8-4, 2-10-2, 3-10-3 or 4-10-4 MOE microwalk gapmer (Table 46) (antisense eA*e[5mC]*eA*dG*dT*dT*dT*d[5mC]*dT*dG*dG*e[5mC]*eA*eG) :: 2125
